Study target: HLA-B*40:01
Procedure details: IEDB peptide-MHC binding, purified MHC/competitive/radioactivity; filed as Kd, often an IC50 or EC50 that approximates it; bounds were set here for any values at or beyond the usual limits of such assays
Conditions used: source organism: Dengue virus 3 Martinique/1243/1999
Outcome measure: Kd (nM)

>>> value_reported("TEATQLATL")
8.32

---

Study target: HLA-A*02:01
Procedure details: IEDB peptide-MHC binding, purified MHC/direct/fluorescence; filed as Kd, often an IC50 or EC50 that approximates it; bounds were set here for any values at or beyond the usual limits of such assays
Conditions used: source organism: West Nile virus
pKd: −log10 of the molar value.
Measured pKd of individual entries
Outcome measure: pKd

>>> value_reported("FTRYRKEAI")
"≤ 4.70"
>>> value_reported("HSRRSRRSL")
"≤ 4.70"
